Origin of measurements: patent US8987257B2

Tested on: constitutively active mTOR
Test: Test 3: TSC Assay (high content imaging of phospho-S6 (240/244) in TSC1−/− MEFs)
Assay type: cell-based
Conditions: Mus musculus, pS6 240/244 staining, 2 hrs compound treatment
pIC50: −log10 of the molar value.
EXPERIMENTAL_ENDPOINT: pIC50

c1cc2ccc(-c3nc4c(N5C[C@@H]6C[C@H]5CO6)nc(N5CCOCC5)nc4[nH]3)cc2[nH]1 [Example 48]
5.83

[1] C[C@H]1COCCN1c1nc(N2CCOC[C@@H]2C)c2nc(-c3cccc4[nH]ccc34)[nH]c2n1 [Example 22]
[2] CC(O)c1cccc(-c2nc3c(N4CCOC[C@@H]4C)nc(N4CCOCC4)nc3[nH]2)c1 (some centres unmarked) [Example 12]
[3] C[C@H]1COCCN1c1nc(N2CCC(O)CC2)nc2[nH]c(-c3cccc4[nH]ccc34)nc12 [Example 16]
Prompt line: Would you mind ranking these compounds by ascending pIC50? // rank by listing labels in the order requested
Response line: 2, 3, 1
(2: 5.71, 3: 6.34, 1: 6.95)

====

System: constitutively active mTOR
Experiment: Test 3: TSC Assay (high content imaging of phospho-S6 (240/244) in TSC1−/− MEFs)
Assay type: cell-based
Conditions: Mus musculus, pS6 240/244 staining, 2 hrs compound treatment
EXPERIMENTAL_ENDPOINT: IC50 (nM)

CC1(C)COCCN1c1nc(N2CCOCC2)nc2[nH]c(-c3ccc4cc[nH]c4c3)nc12
146

[P] C[C@@H]1COCCN1c1nc(N2CCOCC2)c2nc(-c3cccc4[nH]ccc34)[nH]c2n1
[Q] COc1cc(CO)cc(-c2nc3c(N4CCOC[C@@H]4C)nc(N4CCOC[C@@H]4C)nc3[nH]2)c1
Prompt line: Look at P and Q . Which one has the lower recorded IC50 number? State your choice using its label.
Response line: P

====

Test system: constitutively active mTOR
Assay: Test 3: TSC Assay (high content imaging of phospho-S6 (240/244) in TSC1−/− MEFs)
Type: cell-based
Conditions: Mus musculus, pS6 240/244 staining, 2 hrs compound treatment
EXPERIMENTAL_ENDPOINT: IC50 (nM)

c1cc(-c2nc3c(N4CCOCC4)nc(N4CCOCC4)nc3[nH]2)c2cc[nH]c2c1
81
c1cc(-c2nc3c(N4C5CCC4COC5)nc(N4CCOCC4)nc3[nH]2)c2cc[nH]c2c1
309
C[C@H]1COCCN1c1nc(N2CC3CCC(C2)O3)nc2[nH]c(-c3cccc4[nH]ccc34)nc12
88
